Every entry's value here was drawn from patent US9371374.

target: biotinylated HCV core peptide 134-154 (Peptide 1) (HCV-1); assay: EIA, captured mAb
Quantity Name: Reactivity (OD492) (OD)

HCV 208A-692 (antibody, V domains shown) VH: QGQMQQSGAELAKPGASVKLSCKTSGFTFSSSYISWLKQKPGQSLEWIAWIFAGTGNTNYNQKFTDKAQLTVDTSSSTAYMQLSSLTTEDSAIYYCAISGTGFTYWGQGTLVTVSA VL: EVLMTQSPLSLPVSLGDQASISCRSSQSLEHSNGNTYLEWFLQRPGQPPKLLIYKVSSRFSGVPDRFSGSGSGTDFTLKISRVEAEDLGVYYCFQGSHVPFTFGSGTKLAIKR: 3.67
HCV 208B-612 (antibody, V domains shown) VH: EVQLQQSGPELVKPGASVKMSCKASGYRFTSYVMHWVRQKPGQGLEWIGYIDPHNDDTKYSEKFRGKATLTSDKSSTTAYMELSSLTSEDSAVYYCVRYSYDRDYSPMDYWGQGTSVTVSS VL: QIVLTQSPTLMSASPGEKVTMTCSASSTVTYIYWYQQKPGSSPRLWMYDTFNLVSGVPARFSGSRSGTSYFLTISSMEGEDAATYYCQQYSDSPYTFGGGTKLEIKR: 3.05
HCV 208A-293 (antibody, V domains shown) VH: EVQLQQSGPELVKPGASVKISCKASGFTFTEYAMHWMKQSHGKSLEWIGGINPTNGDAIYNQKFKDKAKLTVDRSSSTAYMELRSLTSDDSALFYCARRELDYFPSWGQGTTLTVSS VL: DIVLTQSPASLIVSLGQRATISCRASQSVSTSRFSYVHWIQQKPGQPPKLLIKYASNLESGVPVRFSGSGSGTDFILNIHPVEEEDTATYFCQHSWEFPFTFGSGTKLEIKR: 0.08
